Target: human PPARγ LBD bound to Gal4 DBD (Homo sapiens, UniProt P37231)
Sequence (P37231 238-503 limits assumed): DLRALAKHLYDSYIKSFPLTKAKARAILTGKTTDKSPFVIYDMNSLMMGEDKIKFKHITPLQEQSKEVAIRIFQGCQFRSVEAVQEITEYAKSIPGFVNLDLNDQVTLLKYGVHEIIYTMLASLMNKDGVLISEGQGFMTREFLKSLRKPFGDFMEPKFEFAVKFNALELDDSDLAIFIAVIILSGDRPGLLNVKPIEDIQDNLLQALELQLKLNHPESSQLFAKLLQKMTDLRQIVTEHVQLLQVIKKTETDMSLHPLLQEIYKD
Assay: PPARγ transfection luciferase reporter assay in HepG2 cells
Details: HepG2, 24 hours exposure
// returns criterion not met unless EC50 is strictly below 400 nM, in which case criterion met

[
  {
    "compound": "CCc1nc2c(C)cc(CCc3cccnc3)nc2n1[C@H]1CCc2cc(-c3ccccc3-c3nnn[nH]3)ccc21",
    "category": "criterion not met"
  },
  {
    "compound": "CCc1nc2c(C)cc(CCC(O)(CC)CC)nc2n1[C@H]1CCc2cc(-c3ccccc3-c3nnn[nH]3)ccc21",
    "category": "criterion met"
  },
  {
    "compound": "CCc1nc2c(C)cc(CCOC)nc2n1[C@H]1CCc2cc(-c3ccccc3-c3nnn[nH]3)ccc21",
    "category": "criterion not met"
  },
  {
    "compound": "CCc1nc2c(C)cc(CCc3ccc(OC)cc3)nc2n1[C@H]1CCc2cc(-c3ccccc3-c3nnn[nH]3)ccc21",
    "category": "criterion not met"
  }
]

Confirm or reject: EC50 of CCc1nc2c(C)cc(CCO)nc2n1[C@H]1CCc2cc(-c3ccccc3-c3nnn[nH]3)ccc21 [Example 13a] lies strictly below 400 nM
criterion not met

Reference source: patent US20100029710A1
